Organism: Rattus norvegicus
Experiment: Open TG-GATES - Regimen: Single
Assay type: toxicity, organism-based, Sprague-Dawley
Design: regimen Single, gender Male, age 6 weeks
Settings: in vivo, po, 100 mg/kg, 9 h, tissue Blood, route gavage, dose level Low
reported_endpoint: Plat (x10_4/uL)

INSERT INTO assay_data (molecule, reported_endpoint, value_units, value) VALUES
  ('COc1ccc2[nH]c([S+]([O-])Cc3ncc(C)c(OC)c3C)nc2c1 (centres undefined)', 'Plat', 'x10_4/uL', 130.5),
  ('CCOC(=O)CCC(=O)O[C@H]1[C@H](O[C@@H]2[C@@H](C)[C@H](O[C@H]3C[C@@](C)(OC)[C@@H](O)[C@H](C)O3)[C@@H](C)C(=O)O[C@H](CC)[C@@](C)(O)[C@H](O)[C@@H](C)C(=O)[C@H](C)C[C@@]2(C)O)O[C@H](C)C[C@@H]1N(C)C [ERYTHROMYCIN ETHYLSUCCINATE]', 'Plat', 'x10_4/uL', 121.2),
  ('NC(N)=Nc1nc(CSCCC(N)=NS(N)(=O)=O)cs1', 'Plat', 'x10_4/uL', 116.7),
  ('COC1=CC(=O)C[C@@H](C)[C@]12Oc1c(Cl)c(OC)cc(OC)c1C2=O', 'Plat', 'x10_4/uL', 123.9);
